MIC for assorted compounds
test system: Streptococcus pyogenes IID692
metric name: MIC (µg/mL)

C=Cn1cc(C(=O)O)c(=O)c2cc(F)c(N3CCN(C)CC3)cc21
12.5
C=Cn1cc(C(=O)O)c(=O)c2cc(F)c(N3CCNCC3)cc21
12.5
CCn1cc(C(=O)O)c(=O)c2cc(F)c(N3CCN(C)CC3)cc21
6.25
CCn1cc(C(=O)O)c(=O)c2cc(F)c(N3CCNCC3)cc21
1.56
